- TEST SYSTEM: Sterol O-acyltransferase 1 (Rattus norvegicus)
- Sequence (O70536 whole entry): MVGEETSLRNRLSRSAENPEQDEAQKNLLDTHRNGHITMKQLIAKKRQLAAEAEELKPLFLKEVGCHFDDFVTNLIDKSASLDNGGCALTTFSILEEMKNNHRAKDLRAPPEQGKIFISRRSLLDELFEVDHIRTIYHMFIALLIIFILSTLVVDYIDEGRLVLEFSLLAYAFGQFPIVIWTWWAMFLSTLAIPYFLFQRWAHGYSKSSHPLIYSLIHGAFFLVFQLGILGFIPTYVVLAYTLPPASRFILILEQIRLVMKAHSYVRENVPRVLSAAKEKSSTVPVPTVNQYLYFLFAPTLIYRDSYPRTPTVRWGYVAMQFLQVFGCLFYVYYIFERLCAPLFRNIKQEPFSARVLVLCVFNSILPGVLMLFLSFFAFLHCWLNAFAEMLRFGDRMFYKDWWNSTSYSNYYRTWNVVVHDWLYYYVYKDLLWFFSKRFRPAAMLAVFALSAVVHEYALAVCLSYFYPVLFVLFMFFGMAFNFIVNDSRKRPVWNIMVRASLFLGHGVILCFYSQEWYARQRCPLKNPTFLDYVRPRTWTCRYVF
- EXPERIMENTAL DETAILS: Concentration required to inhibit 50% activity of Acyl coenzyme A:cholesterol acyltransferase 1 in vitro using rat liver microsome.
- Type: microsomes
- TEST CONTEXT: read-out: IC50
REPORTED ENDPOINT: log10 of IC50 (log10 of the value in nM)
Form field - Quantity: IC50; Unit: nM; Scale: log10

[ask] Form field: log10 of IC50 recorded for CCCCCCCN(CCCCCSc1nc(-c2ccco2)c(-c2ccco2)[nH]1)C(=O)Nc1ccc(F)cc1F with Sterol O-acyltransferase 1 (Rattus norvegicus) (enter value)
[reply] 2.30

[ask] What is its log10 of IC50 for Sterol O-acyltransferase 1 (Rattus norvegicus)? Entry: CCCCCCCN(CCCCCSc1nc(-c2ccc(O)cc2)c(-c2ccc(O)cc2)[nH]1)C(=O)Nc1ccc(F)cc1F
[reply] 3.38

[ask] Write down the reported log10 of IC50 of CCCCCCCN(CCN(C)CCSc1nc(-c2ccccc2)c(-c2ccccc2)[nH]1)C(=O)Nc1ccc(F)cc1F , test system: Sterol O-acyltransferase 1 (Rattus norvegicus).
[reply] 2.23

[ask] Give recorded log10 of IC50 with Sterol O-acyltransferase 1 (Rattus norvegicus) for the following compound: CCCCCCCN(CCCCCSc1nc(-c2ccc(C)cc2)c(-c2ccc(C)cc2)[nH]1)C(=O)Nc1ccc(F)cc1F
[reply] 1.90

[ask] What measured log10 of IC50 is associated with CCCCN(C)CCN(CCOCCSc1nc(-c2ccc(OC)cc2)c(-c2ccc(OC)cc2)[nH]1)C(=O)Nc1ccc(F)cc1F on Sterol O-acyltransferase 1 (Rattus norvegicus)?
[reply] 3.18

[ask] Under Sterol O-acyltransferase 1 (Rattus norvegicus): log10 of IC50 value of CCCCCCCN(CCOCCSc1nc(-c2ccc(OC)cc2)c(-c2ccc(OC)cc2)[nH]1)C(=O)Nc1ccc(F)cc1F ?
[reply] 3.36

[ask] Fill in the recorded log10 of IC50 for this compound, with Sterol O-acyltransferase 1 (Rattus norvegicus) as test system: CCCCCCCN(CCCCCSc1nc2c([nH]1)-c1ccccc1Oc1ccccc1-2)C(=O)Nc1ccc(F)cc1F
[reply] 1.78

[ask] Find the measured log10 of IC50: item CCN(CC)CCN(CCCCCSc1nc(-c2ccccc2)c(-c2ccccc2)[nH]1)C(=O)Nc1ccc(F)cc1F , target or system Sterol O-acyltransferase 1 (Rattus norvegicus).
[reply] 1.90

[ask] Requested read-out log10 of IC50, target or system Sterol O-acyltransferase 1 (Rattus norvegicus), entry O=C(Nc1ccc(F)cc1F)N(CCCCCSc1nc(-c2ccccc2)c(-c2ccccc2)[nH]1)CCOCCO
[reply] 1.60

[ask] Checklist item: log10 of IC50 tested on Sterol O-acyltransferase 1 (Rattus norvegicus), entry CCOCCOCCN(CCCCCSc1nc(-c2ccc(SC)cc2)c(-c2ccc(SC)cc2)[nH]1)C(=O)NC(C)C , value?
[reply] 2.45

[ask] Sterol O-acyltransferase 1 (Rattus norvegicus) / log10 of IC50 / CCCCCCCN(CCCCCSc1nc(-c2ccc(OC)cc2)c(-c2ccc(OC)cc2)[nH]1)C(=O)CC1CCCCC1 : value?
[reply] 1.04

[ask] Which log10 of IC50 is reported with Sterol O-acyltransferase 1 (Rattus norvegicus) for this entry: COCCOCCN(CCCCCSc1nc(-c2ccc(OC)cc2)c(-c2ccc(OC)cc2)[nH]1)C(=O)Nc1ccc(F)cc1F ?
[reply] 2.53

[ask] Form entry - test system: Sterol O-acyltransferase 1 (Rattus norvegicus); read-out: log10 of IC50; compound: CCCCCCCN(CCCCCSc1nc(-c2ccc(F)cc2)c(-c2ccc(F)cc2)[nH]1)C(=O)Nc1ccc(F)cc1F
[reply] 1.60

[ask] Give Sterol O-acyltransferase 1 (Rattus norvegicus) log10 of IC50 for CCCCCCCN(CCCCCSc1nc(-c2cccs2)c(-c2cccs2)[nH]1)C(=O)Nc1ccc(F)cc1F
[reply] 1.78

[ask] Under Sterol O-acyltransferase 1 (Rattus norvegicus): log10 of IC50 value of CCCCCCCN(CCOCCSc1nc(-c2ccccc2)c(-c2ccccc2)[nH]1)C(=O)NC(C)C ?
[reply] 2.28

[ask] // fetch Sterol O-acyltransferase 1 (Rattus norvegicus) log10 of IC50 for COc1ccc(-c2nc(SCCCCCN(CCN3CCOCC3)C(=O)Nc3ccc(F)cc3F)[nH]c2-c2ccc(OC)cc2)cc1
[reply] 2.43

[ask] Fill in the recorded log10 of IC50 for this compound, with Sterol O-acyltransferase 1 (Rattus norvegicus) as test system: CCCCCCCN(CCCCCSc1nc(-c2ccc(OC)cc2)c(-c2ccc(OC)cc2)[nH]1)C(=O)NC(C)C
[reply] 2.20

[ask] // lookup log10 of IC50 | system=Sterol O-acyltransferase 1 (Rattus norvegicus) | key= CCCCOCCN(CCCCCSc1nc(-c2ccccc2)c(-c2ccccc2)[nH]1)C(=O)Nc1ccc(F)cc1F
[reply] 1.85

[ask] Under Sterol O-acyltransferase 1 (Rattus norvegicus): log10 of IC50 value of CCCCCCCN(CCCCCSc1nc(C2CCCCC2)c(C2CCCCC2)[nH]1)C(=O)Nc1ccc(F)cc1F ?
[reply] 1.30

[ask] Requested read-out log10 of IC50, target or system Sterol O-acyltransferase 1 (Rattus norvegicus), entry CCCCCCCN(CCN(C)CCSc1nc(-c2ccccc2)c(-c2ccccc2)[nH]1)C(=O)NC(C)C
[reply] 2.41

[ask] Provide the documented log10 of IC50 with Sterol O-acyltransferase 1 (Rattus norvegicus) as the system for CCN(CC)CCN(CCCCCSc1nc(-c2ccccc2)c(-c2ccccc2)[nH]1)C(=O)NC(C)C
[reply] 2.82

[ask] Field: log10 of IC50 (Sterol O-acyltransferase 1 (Rattus norvegicus)). Entry: CCCCCCCN(CCCCCSc1nc(-c2ccc(N(C)C)cc2)c(-c2ccc(N(C)C)cc2)[nH]1)C(=O)CC1CCCCC1
[reply] 1.70

[ask] Look up log10 of IC50 with Sterol O-acyltransferase 1 (Rattus norvegicus) for this compound: CCCCCCCN(CCOCCSc1nc(-c2ccc(OC)cc2)c(-c2ccc(OC)cc2)[nH]1)C(=O)NC(C)C
[reply] 2.93

[ask] Provide value of log10 of IC50 for this record tested with Sterol O-acyltransferase 1 (Rattus norvegicus): CCCCCCCN(CCCCCSc1nc(-c2ccccn2)c(-c2ccccn2)[nH]1)C(=O)Nc1ccc(F)cc1F
[reply] 3.00

[ask] Give the reported log10 of IC50 for CCCCCCCN(CCCCCSc1nc(C(C)C)c(C(C)C)[nH]1)C(=O)Nc1ccc(F)cc1F (system: Sterol O-acyltransferase 1 (Rattus norvegicus)).
[reply] 1.30

[ask] Give the reported log10 of IC50 for CCCCCCCN(CCCCCSc1nc(-c2ccc(OC)cc2)c(-c2ccc(OC)cc2)[nH]1)C(=O)Nc1ccc(F)cc1F (system: Sterol O-acyltransferase 1 (Rattus norvegicus)).
[reply] 2.15

[ask] Query the reported log10 of IC50 for Sterol O-acyltransferase 1 (Rattus norvegicus); item: CCCCCCCN(CCCCCSc1nc(-c2ccc(N(C)C)cc2)c(-c2ccc(N(C)C)cc2)[nH]1)C(=O)Nc1ccc(F)cc1F
[reply] 1.70

[ask] Give the reported log10 of IC50 for CCCCCCCN(CCCCCSc1nc(-c2cccc(OC)c2)c(-c2cccc(OC)c2)[nH]1)C(=O)Nc1ccc(F)cc1F (system: Sterol O-acyltransferase 1 (Rattus norvegicus)).
[reply] 1.60

[ask] Form field - read-out: log10 of IC50; system: Sterol O-acyltransferase 1 (Rattus norvegicus); submitted item: CCCCCCCN(CCCCCSc1nc(-c2ccc(C(F)(F)F)cc2)c(-c2ccc(C(F)(F)F)cc2)[nH]1)C(=O)Nc1ccc(F)cc1F
[reply] 4.60

[ask] Please provide the recorded log10 of IC50 for CCCCOCCN(CCCCCSc1nc(-c2ccccc2)c(-c2ccccc2)[nH]1)C(=O)NC(C)C , tested on Sterol O-acyltransferase 1 (Rattus norvegicus).
[reply] 2.28

[ask] Recall the recorded log10 of IC50 for COc1ccc(-c2nc(SCCCOCCN(CCOCCO)C(=O)NC(C)C)[nH]c2-c2ccc(OC)cc2)cc1 with Sterol O-acyltransferase 1 (Rattus norvegicus) and state it.
[reply] 2.68

[ask] log10 of IC50 of CCCCCCCN(CCCCCSc1nc(-c2ccc(N(C)C)cc2)c(-c2ccc(N(C)C)cc2)[nH]1)C(=O)Oc1ccccc1 on Sterol O-acyltransferase 1 (Rattus norvegicus)?
[reply] 2.08
